biological target: Human recombinant monoamine oxidase MAO-B (Homo sapiens (Human), UniProt P27338); assay: Monoamine oxidase assay, kynuramine to 4-hydroxyquinoline fluorescence; conditions: Ki (IC50) at Vmax/2; two ranges listed = near the boundary
pKi: −log10 of the molar value. Counter-ions that a name gives are not always drawn.
Recorded measurements of pKi, one per entry
ENDPOINT NAME: pKi

# MOLECULE, SUBJECT OF TEST, ENDPOINT NAME, TEST VALUE
records = [
    ("COc1ccc2c(c1)C(N[C@@H]1C[C@H]1c1ccc(OCc3ccccc3)cc1)CCC2 (relative stereo)", "Human recombinant monoamine oxidase MAO-B (Homo sapiens (Human), UniProt P27338)", "pKi", "4.40 to 6.00"),
    ("COc1ccc2c(c1)C(N[C@H]1CC1c1ccc(OCc3cccc(Br)c3)cc1)CC2 (stereo in doubt) [Example 16, hydrochloride]", "Human recombinant monoamine oxidase MAO-B (Homo sapiens (Human), UniProt P27338)", "pKi", "4.40 to 6.00"),
    ("Clc1ccc2c(c1)C(N[C@H]1CC1c1ccccc1)CC2 (stereo in doubt) [Example 6, hydrochloride]", "Human recombinant monoamine oxidase MAO-B (Homo sapiens (Human), UniProt P27338)", "pKi", "4.40 to 6.00"),
    ("Brc1cccc(COc2ccc([C@H]3C[C@@H]3NCCC3CCCCC3)cc2)c1 (relative stereo) [Example 15, hydrochloride]", "Human recombinant monoamine oxidase MAO-B (Homo sapiens (Human), UniProt P27338)", "pKi", "6.00 to 7.00"),
    ("c1ccc([C@H]2C[C@@H]2NCCC2CCCCCC2)cc1 (relative stereo) [Example 14, hydrochloride]", "Human recombinant monoamine oxidase MAO-B (Homo sapiens (Human), UniProt P27338)", "pKi", "4.40 to 6.00"),
    ("c1ccc([C@H]2C[C@@H]2NCCCC2CCCCC2)cc1 (relative stereo) [Example 13, hydrochloride]", "Human recombinant monoamine oxidase MAO-B (Homo sapiens (Human), UniProt P27338)", "pKi", "4.40 to 6.00"),
    ("COc1ccc2c(c1OC)CCC2N[C@H]1CC1c1ccc(OCc2ccccc2)cc1.Cl (stereo in doubt) [Example 3, hydrochloride]", "Human recombinant monoamine oxidase MAO-B (Homo sapiens (Human), UniProt P27338)", "pKi", "4.40 to 6.00"),
    ("COc1ccc2c(c1)C(N[C@H]1CC1c1ccccc1)CCC2 (stereo in doubt)", "Human recombinant monoamine oxidase MAO-B (Homo sapiens (Human), UniProt P27338)", "pKi", "4.40 to 6.00"),
]

The origin of these recorded values is patent US10202330B2.
